- tgt: T1, CRBN, Q96SW2
- T1 chain: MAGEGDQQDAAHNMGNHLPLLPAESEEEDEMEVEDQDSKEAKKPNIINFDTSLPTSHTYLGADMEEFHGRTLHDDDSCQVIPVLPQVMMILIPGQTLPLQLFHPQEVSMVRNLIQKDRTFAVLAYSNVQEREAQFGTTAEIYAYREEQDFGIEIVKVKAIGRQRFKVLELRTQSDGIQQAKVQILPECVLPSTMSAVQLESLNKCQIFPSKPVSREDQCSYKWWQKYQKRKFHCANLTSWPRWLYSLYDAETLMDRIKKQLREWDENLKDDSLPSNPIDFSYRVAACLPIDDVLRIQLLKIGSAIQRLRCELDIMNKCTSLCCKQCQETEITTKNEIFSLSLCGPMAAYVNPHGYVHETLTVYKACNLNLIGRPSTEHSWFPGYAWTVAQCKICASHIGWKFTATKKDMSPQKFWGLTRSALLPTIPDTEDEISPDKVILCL
- assay_notes: log2 fold change of degron read counts, EGFP-low vs EGFP+ sorted cells (limma voom), compound-induced degradation; higher = more compound-induced degradation of the degron-EGFP fusion; degrons are variants of IKZF1/3 zinc finger 2; compound dose not given here;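 also: pooled lentiviral library of zinc finger degron-EGFP fusions in mCherry-positive Jurkat cells, FACS-sorted after compound exposure, with degron abundance counted by next-generation sequencing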
- particulars: Jurkat; 18 h; compound: thalidomide
The full ranking holds about 8,300 sequences; the median of “log2 fold change of degron read counts, EGFP-low vs EGFP+ sorted cells (limma voom), compound-induced degradation” is about -1.1, and the highest 2% start at about 3.2. Only a selection was taken, and the highest values are over-represented in it overall.
measured_attribute: log2 fold change of degron read counts

FCCPICGAAFTQKGNLLRHIKL [46F_47C_49P_50I_52G_53A_54A_55F_67L_, Q9UKT9]    2.21

Each sequence below has a reported value. Please supply its log2 fold change of degron read counts.
1. FVCEICGRPFTQKGNLLRHIKL [46F_47V_49E_50I_52G_53R_54P_55F_67L_, Q9UKT9]
2. FHCEVCGAWFTQKGNLLRHIKL [46F_47H_49E_50V_52G_53A_54W_55F_67L_, Q9UKT9]
3. FTCPICGAAFTQKGNLLRHIKL [46F_47T_49P_50I_52G_53A_54A_55F_67L_, Q9UKT9]
4. FYCPICGASFTQKGNLLRHIKL [46F_47Y_49P_50I_52G_53A_54S_55F_67L_, Q9UKT9]
5. FTCNQCGRLFTQKGNLLRHIKL [46F_47T_49N_50Q_52G_53R_54L_55F_67L_, Q9UKT9]
6. FTCEQCGAKFTQKGNLLRHIKL [46F_47T_49E_50Q_52G_53A_54K_55F_67L_, Q9UKT9]

-0.0354
-1.89
2.67
1.24
-2.31
0.449

Each sequence below has a reported value. Please supply its log2 fold change of degron read counts.
1. FDCPICGATFTQKGNLLRHIKL [46F_47D_49P_50I_52G_53A_54T_55F_67L_, Q9UKT9]
2. FVCEICGHWFTQKGNLLRHIKL [46F_47V_49E_50I_52G_53H_54W_55F_67L_, Q9UKT9]

1: 1.68; 2: -3.37

Each sequence below has a reported value. Please supply its log2 fold change of degron read counts.
1. FTCNQCGAIFTQKGNLLRHIKL [46F_47T_49N_50Q_52G_53A_54I_55F_67L_, Q9UKT9]
2. FKCPICGASFTQKGNLLRHIKL [46F_47K_49P_50I_52G_53A_54S_55F_67L_, Q9UKT9]
3. FECPICGHPFTQKGNLLRHIKL [46F_47E_49P_50I_52G_53H_54P_55F_67L_, Q9UKT9]

-1.93
0.422
-0.173

Each sequence below has a reported value. Please supply its log2 fold change of degron read counts.
1. FECDICGASFTQKGNLLRHIKL [46F_47E_49D_50I_52G_53A_54S_55F_67L_, Q9UKT9]
2. FDCPICGASFTQKGNLLRHIKL [46F_47D_49P_50I_52G_53A_54S_55F_67L_, Q9UKT9]
3. FMCPICGAAFTQKGNLLRHIKL [46F_47M_49P_50I_52G_53A_54A_55F_67L_, Q9UKT9]
4. FWCPICGATFTQKGNLLRHIKL [46F_47W_49P_50I_52G_53A_54T_55F_67L_, Q9UKT9]
5. FQCDICGATFTQKGNLLRHIKL [46F_47Q_49D_50I_52G_53A_54T_55F_67L_, Q9UKT9]
6. FCCDICGATFTQKGNLLRHIKL [46F_47C_49D_50I_52G_53A_54T_55F_67L_, Q9UKT9]
7. FQCNICGATFTQKGNLLRHIKL [46F_47Q_49N_50I_52G_53A_54T_55F_67L_, Q9UKT9]

1: -0.0103; 2: 1.9; 3: 2.32; 4: 0.523; 5: 3.25; 6: 0.177; 7: 3.87
